meta.source: PubChem BioAssay AID1963858

System: HOP-62 multicell spheroids with HUVEC/MSC, viability
Assay: Anticancer human tumor HOP-62 cell line growth inhibition [KRAS2];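 note: viability read after a week of compound exposure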
Details: curve of first compound; second compound 0.316 µM
Hi there, I'd appreciate the recorded IC50 for every entry that follows.

Example entries begin here.
COC(=O)c1ccc2c(C(=Nc3ccc(N(C)C(=O)CN4CCN(C)CC4)cc3)c3ccccc3)c(O)[nH]c2c1 + C=CC(=O)N1CCN(c2nc(=O)n(-c3c(C)ccnc3C(C)C)c3nc(-c4c(O)cccc4F)c(F)cc23)C(C)C1 ... < 31.6 nM
Cn1ncnc1[C@H]1c2n[nH]c(=O)c3cc(F)cc(c23)N[C@@H]1c1ccc(F)cc1 + C=CC(=O)N1CCN(c2nc(OCC3CCCN3C)nc3c2CCN(c2cccc4cccc(C)c24)C3)CC1CC#N ... < 0.316 nM
CC1OCC2(CCN(c3cnc(Sc4ccnc(N)c4Cl)c(N)n3)CC2)C1N (stereo not given) + C=CC(=O)N1CCN(c2nc(OCC3CCCN3C)nc3c2CCN(c2cccc4cccc(C)c24)C3)CC1CC#N ... < 31.6 nM
CC(=O)OC12COC1CC(O)C1(C)C(=O)C(O)C3=C(C)C(OC(=O)C(O)C(NC(=O)OC(C)(C)C)c4ccccc4)CC(O)(C(OC(=O)c4ccccc4)C21)C3(C)C (stereo not given) + CC1OCC2(CCN(c3cnc(Sc4ccnc(N)c4Cl)c(N)n3)CC2)C1N ... < 10 nM

Let us examine a further case.
In plain terms, CC(=O)OC12COC1CC(O)C1(C)C(=O)C(O)C3=C(C)C(OC(=O)C(O)C(NC(=O)OC(C)(C)C)c4ccccc4)CC(O)(C(OC(=O)c4ccccc4)C21)C3(C)C (stereo not given) + C=CC(=O)N1CCN(c2nc(OCC3CCCN3C)nc3c2CCN(c2cccc4cccc(C)c24)C3)CC1CC#N has a documented IC50 of < 10 nM

* * *

Test system: HOP-62 multicell spheroids with HUVEC/MSC, viability
Assay: Anticancer human tumor HOP-62 cell line growth inhibition [KRAS2];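 note: viability read after a week of compound exposure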
Details: curve of first compound; second compound 1 µM
pIC50: −log10 of the molar value.
MEASURED METRIC: pIC50

Below are worked cases with known answers.
Cn1ncnc1[C@H]1c2n[nH]c(=O)c3cc(F)cc(c23)N[C@@H]1c1ccc(F)cc1 + CNCc1ccccc1-c1csc(C(C)Nc2nc(C)nc3cc(OC)c(OC)cc23)c1 ... < 7.00
COc1cc(Nc2ncc3c(n2)-c2ccc(Cl)cc2C(c2c(F)cccc2OC)=NC3)ccc1C(=O)O + C=CC(=O)N1CCN(c2nc(=O)n(-c3c(C)ccnc3C(C)C)c3nc(-c4c(O)cccc4F)c(F)cc23)C(C)C1 ... > 7.50

// next item, pIC50 requested
Measured pIC50, CN(C)C/C=C/C(=O)Nc1cc2c(Nc3ccc(F)c(Cl)c3)ncnc2cc1O[C@H]1CCOC1 + CNCc1ccccc1-c1csc(C(C)Nc2nc(C)nc3cc(OC)c(OC)cc23)c1 : < 7.00

* * *

Tested on: HOP-62 multicell spheroids with HUVEC/MSC, viability
Assay: Anticancer human tumor HOP-62 cell line growth inhibition [KRAS2];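 note: viability read after a week of compound exposure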;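 for viability, T/C: 100% = DMSO vehicle-treated spheroids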
Details: second compound 0.1 µM; first compound 3.16 µM; stronger effect = lower value
Description: Multicellular complex tumor spheroid response to RAS pathway inhibitors in combination with a targeted agents in patient-derived cell lines with oncogenic KRAS variants from multiple cancer types A high-throughput screen of multi-cell type tumor spheroids was designed to identify active combinations of targeted small molecules and KRAS pathway inhibitors. […] Compounds. […] If the clinical Cmax for an agent had not been determined, the highest concentration tested was 10 microM. […]
MEASURED METRIC: viability, T/C

These solved cases illustrate the format of a correct answer.
CC1(C)CCC(CN2CCN(c3ccc(C(=O)NS(=O)(=O)c4ccc(NCC5CCOCC5)c([N+](=O)[O-])c4)c(Oc4cnc5[nH]ccc5c4)c3)CC2)=C(c2ccc(Cl)cc2)C1 + C=CC(=O)N1CCN(c2nc(=O)n(-c3c(C)ccnc3C(C)C)c3nc(-c4c(O)cccc4F)c(F)cc23)C(C)C1 ... 39.1%
Cn1nccc1Nc1nccc(-c2cc3c(s2)C(C)(C)N(CCN2CCOCC2)C3=O)n1 + COc1cc2nc(C)nc(NC(C)c3cc(N)cc(C(F)(F)F)c3)c2cc1OC1CCOC1 ... 25.2%
O=C(c1cc(Cc2n[nH]c(=O)c3ccccc23)ccc1F)N1CCN(C(=O)C2CC2)CC1 + CC1OCC2(CCN(c3cnc(Sc4ccnc(N)c4Cl)c(N)n3)CC2)C1N ... 66.8%

We next turn to a different compound, shown below.
Reported viability, T/C of CC1(C)CCC(CN2CCN(c3ccc(C(=O)NS(=O)(=O)c4ccc(NCC5CCOCC5)c([N+](=O)[O-])c4)c(Oc4cnc5[nH]ccc5c4)c3)CC2)=C(c2ccc(Cl)cc2)C1 + C=CC(=O)N1CCN(c2nc(OCC3CCCN3C)nc3c2CCN(c2cccc4cccc(C)c24)C3)CC1CC#N : 37.2%

* * *

Give log10 of IC50 for every item shown.
Tested on: HOP-62 multicell spheroids with HUVEC/MSC, viability
Test: Anticancer human tumor HOP-62 cell line growth inhibition [KRAS2];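 note: viability read after a week of compound exposure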
Conditions: curve of first compound; second compound 0.316 µM
Note: values are log10 of IC50 expressed in nM.

CC1OCC2(CCN(c3cnc(Sc4ccnc(N)c4Cl)c(N)n3)CC2)C1N (stereo not drawn) + C=CC(=O)N1CCN(c2nc(=O)n(-c3c(C)ccnc3C(C)C)c3nc(-c4c(O)cccc4F)c(F)cc23)C(C)C1 ... 1.79
CCN1CCN(Cc2ccc(Nc3ncc(F)c(-c4cc(F)c5nc(C)n(C(C)C)c5c4)n3)nc2)CC1 + CC1OCC2(CCN(c3cnc(Sc4ccnc(N)c4Cl)c(N)n3)CC2)C1N ... 2.57
CN(C)C/C=C/C(=O)Nc1cc2c(Nc3ccc(F)c(Cl)c3)ncnc2cc1O[C@H]1CCOC1 + C=CC(=O)N1CCN(c2nc(OCC3CCCN3C)nc3c2CCN(c2cccc4cccc(C)c24)C3)CC1CC#N ... 0.64
CC(C)NCC(C(=O)N1CCN(c2ncnc3c2C(C)CC3O)CC1)c1ccc(Cl)cc1 (stereo not drawn) + CNCc1ccccc1-c1csc(C(C)Nc2nc(C)nc3cc(OC)c(OC)cc23)c1 ... 2.78
CC(=O)Nc1cccc(-n2c(=O)n(C3CC3)c(=O)c3c(Nc4ccc(I)cc4F)n(C)c(=O)c(C)c32)c1 + CNCc1ccccc1-c1csc(C(C)Nc2nc(C)nc3cc(OC)c(OC)cc23)c1 ... 0.45
COC(=O)c1ccc2c(C(=Nc3ccc(N(C)C(=O)CN4CCN(C)CC4)cc3)c3ccccc3)c(O)[nH]c2c1 + COc1cc2nc(C)nc(NC(C)c3cc(N)cc(C(F)(F)F)c3)c2cc1OC1CCOC1 ... 2.51

Okay, here is my list. What is log10 of IC50 for each of these?
1. COc1cc(Nc2ncc3c(n2)-c2ccc(Cl)cc2C(c2c(F)cccc2OC)=NC3)ccc1C(=O)O + CNCc1ccccc1-c1csc(C(C)Nc2nc(C)nc3cc(OC)c(OC)cc23)c1
2. Cn1nccc1Nc1nccc(-c2cc3c(s2)C(C)(C)N(CCN2CCOCC2)C3=O)n1 + COc1cc2nc(C)nc(NC(C)c3cc(N)cc(C(F)(F)F)c3)c2cc1OC1CCOC1
3. O=C(c1cc(Cc2n[nH]c(=O)c3ccccc23)ccc1F)N1CCN(C(=O)C2CC2)CC1 + CC1OCC2(CCN(c3cnc(Sc4ccnc(N)c4Cl)c(N)n3)CC2)C1N

1. 2.16
2. 2.90
3. 3.73

* * *

Tested on: HOP-62 multicell spheroids with HUVEC/MSC, viability
Assay: Anticancer human tumor HOP-62 cell line growth inhibition [KRAS2];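 note: viability read after a week of compound exposure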;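 for viability, T/C: 100% = DMSO vehicle-treated spheroids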
Settings: second compound 3.16 µM; first compound 3.16 µM; stronger effect = lower value
Mark MET only when viability, T/C stays strictly below 10%. Values equal to the cut-off are NOT MET.

Answered cases to consult:
CCNC(=O)CC1N=C(c2ccc(Cl)cc2)c2cc(OC)ccc2-n2c(C)nnc21 (stereo not drawn) + C=CC(=O)N1CCN(c2nc(=O)n(-c3c(C)ccnc3C(C)C)c3nc(-c4c(O)cccc4F)c(F)cc23)C(C)C1 ... NOT MET
CC1(C)CCC(CN2CCN(c3ccc(C(=O)NS(=O)(=O)c4ccc(NCC5CCOCC5)c([N+](=O)[O-])c4)c(Oc4cnc5[nH]ccc5c4)c3)CC2)=C(c2ccc(Cl)cc2)C1 + C=CC(=O)N1CCN(c2nc(=O)n(-c3c(C)ccnc3C(C)C)c3nc(-c4c(O)cccc4F)c(F)cc23)C(C)C1 ... NOT MET

Check if viability, T/C falls below 10% for CC1COCCN1c1cc(-c2ccnn2C)c2ccnc(-c3ccn[nH]3)c2n1 (stereo not drawn) + CC1OCC2(CCN(c3cnc(Sc4ccnc(N)c4Cl)c(N)n3)CC2)C1N .
MET

Hi there! Is viability, T/C for COc1cc(Nc2ncc3c(n2)-c2ccc(Cl)cc2C(c2c(F)cccc2OC)=NC3)ccc1C(=O)O + COc1cc2nc(C)nc(NC(C)c3cc(N)cc(C(F)(F)F)c3)c2cc1OC1CCOC1 below 10%, do you know?
NOT MET

hey, is viability, T/C for COc1cc(Nc2ncc3c(n2)-c2ccc(Cl)cc2C(c2c(F)cccc2OC)=NC3)ccc1C(=O)O + CC1OCC2(CCN(c3cnc(Sc4ccnc(N)c4Cl)c(N)n3)CC2)C1N lower than 10% or not?
NOT MET

A record lists Cn1nccc1Nc1nccc(-c2cc3c(s2)C(C)(C)N(CCN2CCOCC2)C3=O)n1 + CC1OCC2(CCN(c3cnc(Sc4ccnc(N)c4Cl)c(N)n3)CC2)C1N . Is its viability, T/C below 10%?
NOT MET

Dear reviewer, please state whether O=C(c1cc(Cc2n[nH]c(=O)c3ccccc23)ccc1F)N1CCN(C(=O)C2CC2)CC1 + C=CC(=O)N1CCN(c2nc(OCC3CCCN3C)nc3c2CCN(c2cccc4cccc(C)c24)C3)CC1CC#N has viability, T/C strictly beneath 10%.
MET

Below 10% on viability, T/C? Entry CC1(C)CCC(CN2CCN(c3ccc(C(=O)NS(=O)(=O)c4ccc(NCC5CCOCC5)c([N+](=O)[O-])c4)c(Oc4cnc5[nH]ccc5c4)c3)CC2)=C(c2ccc(Cl)cc2)C1 + COc1cc2nc(C)nc(NC(C)c3cc(N)cc(C(F)(F)F)c3)c2cc1OC1CCOC1
NOT MET

Quick check: viability, T/C of CC1(C)CCC(CN2CCN(c3ccc(C(=O)NS(=O)(=O)c4ccc(NCC5CCOCC5)c([N+](=O)[O-])c4)c(Oc4cnc5[nH]ccc5c4)c3)CC2)=C(c2ccc(Cl)cc2)C1 + C=CC(=O)N1CCN(c2nc(OCC3CCCN3C)nc3c2CCN(c2cccc4cccc(C)c24)C3)CC1CC#N under 10%?
MET

hey, is viability, T/C for CC(=O)OC12COC1CC(O)C1(C)C(=O)C(O)C3=C(C)C(OC(=O)C(O)C(NC(=O)OC(C)(C)C)c4ccccc4)CC(O)(C(OC(=O)c4ccccc4)C21)C3(C)C (stereo not drawn) + COc1cc2nc(C)nc(NC(C)c3cc(N)cc(C(F)(F)F)c3)c2cc1OC1CCOC1 lower than 10% or not?
NOT MET

Criterion: viability, T/C strictly below 10%. Is it met by COC(=O)c1ccc2c(C(=Nc3ccc(N(C)C(=O)CN4CCN(C)CC4)cc3)c3ccccc3)c(O)[nH]c2c1 + C=CC(=O)N1CCN(c2nc(OCC3CCCN3C)nc3c2CCN(c2cccc4cccc(C)c24)C3)CC1CC#N ?
MET

Lab log: compare recorded viability, T/C with 10%; is it strictly lower for COC(=O)c1ccc2c(C(=Nc3ccc(N(C)C(=O)CN4CCN(C)CC4)cc3)c3ccccc3)c(O)[nH]c2c1 + COc1cc2nc(C)nc(NC(C)c3cc(N)cc(C(F)(F)F)c3)c2cc1OC1CCOC1 ?
NOT MET

Record CC(C)NCC(C(=O)N1CCN(c2ncnc3c2C(C)CC3O)CC1)c1ccc(Cl)cc1 (stereo not drawn) + C=CC(=O)N1CCN(c2nc(=O)n(-c3c(C)ccnc3C(C)C)c3nc(-c4c(O)cccc4F)c(F)cc23)C(C)C1 : is its viability, T/C strictly below 10%?
MET
